Hello, the source for this data is patent US20260132200A1, in case you need it.

system under test: T1, human CD20 expressed on Raji cells (CD3-, CD20+ human B-cell line) (human, UniProt P11836 1-297)
T1 sequence: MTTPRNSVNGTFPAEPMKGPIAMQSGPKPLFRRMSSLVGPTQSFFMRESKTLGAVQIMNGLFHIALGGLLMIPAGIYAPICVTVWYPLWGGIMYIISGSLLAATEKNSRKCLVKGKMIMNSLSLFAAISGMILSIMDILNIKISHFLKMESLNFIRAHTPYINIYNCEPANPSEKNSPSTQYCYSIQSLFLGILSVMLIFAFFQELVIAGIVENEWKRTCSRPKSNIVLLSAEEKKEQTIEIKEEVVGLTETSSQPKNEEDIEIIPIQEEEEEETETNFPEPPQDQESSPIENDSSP
method summary: cell-based or functional assay
reported endpoint: Raji Cytotoxicity Human T-cells [M] (EC50) (M)
// units = M; emit number, no label

IN: Sample BS3/20-002 (bispecific antibody, V domains shown) VH 1: EVQLVESGGGLVQPGRSLRLSCVASGFTFNDYAMHWVRQAPGKGLEWVSVISWNSDSIGYADSVKGRFTISRDNAKNSLYLQMHSLRAEDTALYYCAKDNHYGSGSYYYYQYGMDVWGQGTTVTVSS VH 2: EVQLVESGGGLVQPGGSLRLSCAATGFTFDDFTMHWVRQAPGKGLEWVSGISWNSGSIGYVDSVKGRFTISRDNAKNSLYLQMNSLRAEDTALYYCAKDNSGYGYYYYGMDVWGQGTTVTVSS VL: EIVMTQSPATLSVSPGERATLSCRASHSVSRNSAWYQQKPGQAPRLLIYGASTRATGIPARFSGSGSGTEFTLTISSLQSEDFAIYYCQQYNNWPLTFGGGTKVEIK — what was its Raji Cytotoxicity Human T-cells [M] (EC50)?
OUT: 7.71e-11
